Target: Cholecystokinin receptor type A (Cavia porcellus)
Sequence (Q63931 whole entry): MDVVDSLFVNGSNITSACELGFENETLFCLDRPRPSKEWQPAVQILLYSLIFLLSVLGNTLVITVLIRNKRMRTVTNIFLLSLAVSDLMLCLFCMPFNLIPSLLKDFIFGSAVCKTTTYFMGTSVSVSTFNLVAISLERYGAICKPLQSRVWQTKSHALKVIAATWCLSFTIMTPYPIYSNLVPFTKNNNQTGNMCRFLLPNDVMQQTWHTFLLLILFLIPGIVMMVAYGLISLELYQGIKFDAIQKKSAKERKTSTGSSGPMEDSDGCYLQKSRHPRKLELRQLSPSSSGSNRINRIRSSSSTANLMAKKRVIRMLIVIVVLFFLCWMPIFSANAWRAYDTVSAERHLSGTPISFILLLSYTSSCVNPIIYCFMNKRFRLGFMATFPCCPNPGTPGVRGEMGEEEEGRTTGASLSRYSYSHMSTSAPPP
Test: Binding affinity for Cholecystokinin type A receptor in guinea pig pancreas by using [125I]BH-CCK-8 as radioligand
*1 amine or outer side, *2 acyl side, *3 side chain or, on linkers, in order; H or OH if unused. Where a SMILES comes first, the peptide text is derived from it. Side-chain parts run from the residue outwards. The star is where a group is joined. Boc = CC(C)(C)OC(=O)*; X1 = Clc1cccc(Cl)c1N*; CO = O=C([*:1])[*:2]; NHBn = c1ccc(CN*)cc1
Property: IC50; scope: individual compounds
endpoint: IC50 (nM)

• CC(C)(C)OC(=O)N[C@@H](Cc1c[nH]c2ccccc12)C(=O)N[C@@H](CCCC/N=C(\S)Nc1ccc(Cl)cc1)C(=O)N[C@@H](CC(=O)O)C(=O)N[C@@H](Cc1ccccc1)C(N)=O = 270
• CC(C)(C)OC(=O)N[C@@H](Cc1c[nH]c2ccccc12)C(=O)N[C@@H](CCCCNC(=O)NCc1ccccc1)C(=O)N[C@@H](CC(=O)O)C(=O)N[C@@H](Cc1ccccc1)C(N)=O (Boc-WK([CO-NHBn])DF-NH2) = 230
• CC(C)(C)OC(=O)N[C@@H](Cc1c[nH]c2ccccc12)C(=O)N[C@@H](CCCCNC(=O)Nc1c(Cl)cccc1Cl)C(=O)N[C@@H](CC(=O)O)C(=O)N[C@@H](Cc1ccccc1)C(N)=O (Boc-WK([CO-X1])DF-NH2) = 160

====

Species: Cavia porcellus
Experiment: Percentage response in phosphoinositide hydrolysis relative to maximal response elicited by CCK-8 in guinea pig pancreatic acini
Type: functional
*1 amine or outer side, *2 acyl side, *3 side chain or, on linkers, in order; H or OH if unused. Where a SMILES comes first, the peptide text is derived from it. Side-chain parts run from the residue outwards. [ ]: non-standard residue; d: D form. The star is where a group is joined. NH(2-CF3-phenyl) = FC(F)(F)c1ccccc1N*; NH(2-Me-phenyl) = Cc1ccccc1N*; hLys = NCCCCC[C@H](N)C(=O)O; NH(2-ClPh) = Clc1ccccc1N*; 3Abz = Nc1cccc(C(=O)O)c1; X4 = CC(=O)c1cccc(N*)c1; Boc = CC(C)(C)OC(=O)*; NHcHex = C1CCC(N*)CC1; X1 = Clc1cccc(Cl)c1N*; CO = O=C([*:1])[*:2]; X5 = Cc1cccc(N*)c1; X6 = COc1ccccc1N*
endpoint: Max response (%)

• CC(C)(C)OC(=O)N[C@@H](Cc1c[nH]c2ccccc12)C(=O)N[C@@H](CCCCNC(=O)Nc1ccccc1Cl)C(=O)N[C@@H](CC(=O)O)C(=O)N[C@@H](Cc1ccccc1)C(N)=O (Boc-WK([CO-NH(2-ClPh)])DF-NH2) = 91
• COC(=O)c1cccc(NC(=O)NCCCC[C@H](NC(=O)[C@H](Cc2c[nH]c3ccccc23)NC(=O)OC(C)(C)C)C(=O)N[C@@H](CC(=O)O)C(=O)N[C@@H](Cc2ccccc2)C(N)=O)c1 (Boc-WK([CO-3Abz-OMe])DF-NH2) = 88
• Cc1ccccc1NC(=O)NCCCCC[C@H](NC(=O)[C@H](Cc1c[nH]c2ccccc12)NC(=O)OC(C)(C)C)C(=O)N[C@@H](CC(=O)O)C(=O)N[C@@H](Cc1ccccc1)C(N)=O (Boc-W[hLys]([CO-NH(2-Me-phenyl)])DF-NH2) = 83
• CC(C)(C)OC(=O)N[C@@H](Cc1c[nH]c2ccccc12)C(=O)N[C@@H](CCCCNC(=O)Nc1ccccc1C(F)(F)F)C(=O)N[C@@H](CC(=O)O)C(=O)N[C@@H](Cc1ccccc1)C(N)=O (Boc-WK([CO-NH(2-CF3-phenyl)])DF-NH2) = 100
• Cc1cccc(NC(=O)NCCCC[C@H](NC(=O)[C@H](Cc2c[nH]c3ccccc23)NC(=O)OC(C)(C)C)C(=O)N[C@@H](CC(=O)O)C(=O)N[C@@H](Cc2ccccc2)C(N)=O)c1 (Boc-WK([CO-X5])DF-NH2) = 95
• CC(C)(C)OC(=O)N[C@@H](Cc1c[nH]c2ccccc12)C(=O)N[C@@H](CCCCNC(=O)NC1CCCCC1)C(=O)N[C@@H](CC(=O)O)C(=O)N[C@@H](Cc1ccccc1)C(N)=O (Boc-WK([CO-NHcHex])DF-NH2) = 97
• CC(=O)c1cccc(NC(=O)NCCCC[C@H](NC(=O)[C@H](Cc2c[nH]c3ccccc23)NC(=O)OC(C)(C)C)C(=O)N[C@@H](CC(=O)O)C(=O)N[C@@H](Cc2ccccc2)C(N)=O)c1 (Boc-WK([CO-X4])DF-NH2) = 95
• CC(C)(C)OC(=O)N[C@@H](Cc1c[nH]c2ccccc12)C(=O)N[C@@H](CCCCNC(=O)Nc1c(Cl)cccc1Cl)C(=O)N[C@@H](CC(=O)O)C(=O)N[C@@H](Cc1ccccc1)C(N)=O (Boc-WK([CO-X1])DF-NH2) = 66
• COc1ccccc1NC(=O)NCCCC[C@H](NC(=O)[C@H](Cc1c[nH]c2ccccc12)NC(=O)OC(C)(C)C)C(=O)N[C@@H](CC(=O)O)C(=O)N[C@@H](Cc1ccccc1)C(N)=O (Boc-WK([CO-X6])DF-NH2) = 100
